- Test system: MT4
- test: Inhibitory activity against proliferation of human T-lymphocyte MT-4 tumor cell line
- Format: functional, cell-based
readout kind: IC50 (µg/mL)
Report as a plain number; the unit µg/mL is understood.

Consider the following illustrative entries.
- smiles record: "C/C(=C\\COC(=O)Nc1ccccc1)C1=CC(=O)C(C)(C)O1"
  target or test system: "MT4"
  readout kind: "IC50"
  measurement unit: "µg/mL"
  measurement: 103
- smiles record: "C/C(=C\\COC(=O)NC(C)C)C1=CC(=O)C(C)(C)O1"
  target or test system: "MT4"
  readout kind: "IC50"
  measurement unit: "µg/mL"
  measurement: 2.3
- smiles record: "C/C(=C\\COC(=O)NC1CCCCC1)C1=CC(=O)C(C)(C)O1"
  target or test system: "MT4"
  readout kind: "IC50"
  measurement unit: "µg/mL"
  measurement: 2.4

Okay, next one:
Exercise: Give recorded IC50 with MT4 for the following compound: C/C(=C\COC(=O)NCc1ccccc1)C1=CC(=O)C(C)(C)O1
Key: 2
